So I've got a bunch of variants here, and I need their protein stability index values.
B1: DFFB (parent)
chain: KLNCDPSRIYKPQTRLKRKQPVRK

Variants of: B1
Experiment: protein stability index of a GFP-peptide fusion (GPS, HEK-293T) (PSI 1-6); higher = more stable;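 note: lentivirally expressed fusions sorted by FACS into six bins by GFP to DsRed ratio, PSI derived from sequencing read proportions per bin multiplied by bin number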
Details: c terminus: a fixed tail appended
Number only, please.

Challenge: Can you look up the measured protein stability index of P6W for me?
Response given: 3.08

Challenge: Also, K19G please.
Response given: 2.63

Challenge: Check P12A too.
Response given: 3.47

Challenge: Request: Q20I
Response given: 3.69

Challenge: Request: K24S
Response given: 4.02

Challenge: What about this variant? Q20M
Response given: 4.04

Challenge: Same lookup for V22H , please.
Response given: 3.75

Challenge: Another variant to look at: R18P
Response given: 3.83

Challenge: For I9F then?
Response given: 3.83

Challenge: Proceed to S7F
Response given: 3.34

Challenge: Next up: T14C
Response given: 3.61

Challenge: Quick one: I9N
Response given: 4.01

Challenge: Similarly, V22D ?
Response given: 3.67

Challenge: Continue with S7L
Response given: 3.73

Challenge: Continue with D5W
Response given: 2.71

Challenge: What do we get for Q20F ?
Response given: 3.15

Challenge: Then this variant: T14L
Response given: 3.91

Challenge: Same for P21Q
Response given: 3.37
